Molecular target: T1, recombinant LILRB1 (human, UniProt Q8NHL6 24-461)
T1 construct: LILRB1-Fc proteins were also made; also called LILRB1 recombinant proteins
T1 sequence (Q8NHL6 24-461 limits assumed): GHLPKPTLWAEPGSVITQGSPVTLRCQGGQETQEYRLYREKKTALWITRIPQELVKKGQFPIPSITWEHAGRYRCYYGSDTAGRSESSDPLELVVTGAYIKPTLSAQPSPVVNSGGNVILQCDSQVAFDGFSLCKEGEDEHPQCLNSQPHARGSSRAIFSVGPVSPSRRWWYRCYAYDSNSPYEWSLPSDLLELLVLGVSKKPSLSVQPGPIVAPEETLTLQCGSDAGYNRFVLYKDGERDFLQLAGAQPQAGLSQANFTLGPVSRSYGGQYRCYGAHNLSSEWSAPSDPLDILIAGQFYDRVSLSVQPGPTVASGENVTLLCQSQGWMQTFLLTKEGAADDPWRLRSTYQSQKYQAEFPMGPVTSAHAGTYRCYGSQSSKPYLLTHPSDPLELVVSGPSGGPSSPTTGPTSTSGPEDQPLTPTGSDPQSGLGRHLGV
Test: ELISA, coated recombinant LILRB1, antibody titration;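 note: serially diluted anti-LILRB1 antibodies incubated 60 min at 37 °C on plates coated with 50 ng/well recombinant protein, TMB colorimetric development read as absorbance at 450 nm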
Please respond with reported EC50 for every item in the list.
Numeric only. Scale: µg/mL

Quick one: give measured EC50 for B1-#76 (antibody, V domains shown, recombinant rabbit IgG) VH: EQSVEESGGGLVQPEGSLTLTCTASGFSFSGSCDMSWVRQAPGKGLEWIACIVLSNGNTYYAGWAQGRFTISKISSTTVTLEMTSLTAADTATYFCARERYPGAFSSGLDLWGQGTLVTVSS VL: ELDLTQTPSPVSAAVGGTVTINCQASQIVANGRLAWYQQKPGQPPKLLIYATSTLASGVPSRFKGSGSGTQFTLTINGVQCDDAATYYCQGAYSSGDVRTFGGGTEVVVK 0.0284

Complete the entry with EC50 for B1-#10 (antibody, V domains shown, recombinant rabbit IgG) VH: EQSVEESGGGLVKPEGSLTLTCKASGLDFSSSYWICWVRQAPGKGLEWIACIDTGSSGSTYYASWAKGRFTVSKTSSTTVSLQMTSLTAADTATYFCASTPNSLGYDLWGPGTLVTISS VL: ELDLTQTPASVSAAVGGTVTIKCQASQNIVSNLAWYQQKPGQRPKLLIYYASTLASGVPSRFKGSGSGTEYTLTISDLECADAATYYCQNNAGIYGNYGHGFGGGTELEIK 0.0209
